# Assay comment: anthelmintic activity against nematode growth – whole organism, log2 fold change (AID 1259336);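 further: growth scored by imaging after five days at 20 °C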
# Condition set: C. elegans growth, anthelmintic screen; stronger effect = lower value
// classify(record): look up log2 fold change growth in ranges low bin (below -0.05), mid bin (-0.05 to below 0.2), high bin (0.2 or more)

> print(dat)
                          compound.structure  discrete.label
 1  O=C(CN1CCOCC1)Nc1ccc2ncnc(Nc3ccc(OCc4cccc(F)c4)c(Cl)c3)c2c1         low bin
 2  O=C(C1CCCCC1)N1CC(=O)N2CCc3ccccc3[C@@H]2C1        high bin
 3         Brc1c(-c2ccc3c(c2)OCO3)nc2ncccn12         mid bin
 4         Cc1nc2ccccn2c1C(=O)NCc1ccc(Cl)cc1        high bin
 5       N=C(N)c1ccc(-c2cc(-c3ccccc3)on2)cc1        high bin
 6  CC[C@H](NC(=O)c1ccccc1NC(=O)c1ccc(C)cc1)C(=O)OC         mid bin
 7         Clc1ccc(CN2CCN(C3=NCCN3)CC2)cc1Cl         mid bin
 8          N#Cc1ccc(-c2ccc(OCC(N)=O)cc2)cc1         low bin
 9  COc1ccc(-c2nnc3ccc(-c4cccc(C(C)C)c4)cn23)cc1OC         low bin
10  C[C@H](C(N)=O)N1CCCC[C@@H]1c1ccc(OCc2cccc(F)c2)cc1         low bin
11  CS(=O)(=O)N1CCC(Cn2nc(Cc3cccc4ccccc34)c3c(N)ncnc32)CC1         low bin
12  FC(F)(F)c1cc(NCCc2ccccc2)nc(-c2ccccn2)n1         low bin
13  Cc1cnc(N2CCN[C@@H](Cc3ccccc3)C2)nc1Oc1ccc(-n2ccnc2)cc1        high bin
14  COc1ccc(-c2onc(C(F)(F)F)c2-c2ccc(Cl)cc2)c(O)c1         mid bin
15     c1ccc(-c2nc(NC3CCCCC3)cc(C3CC3)n2)nc1         mid bin
16    CCCn1c(NC(=O)c2ccc3ccccc3n2)nc2ccccc21         mid bin
17  COc1cc(C2=NCCN2)ccc1-c1cn(-c2cccc(C3=NCCN3)c2)nn1         low bin
18  Cc1ccc(Oc2ccc(NC(=O)CNc3ccccc3N3CCCC3=O)cc2)cc1         mid bin
19  O=C(NCc1nnc2n1CCCCC2)c1ccc(-c2ccc(F)cc2)o1         mid bin
20  Cc1ccc2oc(-c3cc(NC(=O)Cc4ccccc4)ccc3Cl)nc2c1        high bin
21  COc1ccc(N(CCc2cccc(C)n2)C(=O)C2CCCCC2)cc1         mid bin
22   CCCNC(=O)N1CCC2(CC1)CC(=O)c1cc(C)ccc1O2         low bin
23  NCCN(C(=O)c1ccc(Cl)cc1Cl)c1ccc(OCc2ccc(Cl)cc2)cc1         mid bin
24  NS(=O)(=O)c1cccc(-c2ccc3ncc(N4CCOCC4)nc3c2)c1         low bin
25            CCC(=O)Nc1ccccc1C(=O)Nc1ccccn1         mid bin
26  CCOC(=O)NC(=O)c1ccsc1NC(=O)c1nc2ccccc2s1         low bin
27        Nc1ncc(Br)cc1-c1nc2ncc(Cl)cc2[nH]1        high bin
28  CCc1ccc([C@@H](NCc2nc(N)nc(N(C)C)n2)C(C)C)cc1        high bin
29  CNC(=O)[C@@H]1Cc2c([nH]c3cc(Cl)ccc23)C2(CCN(CCc3ccccc3)CC2)N1        high bin
30  C[C@H]1CCCCN1C(=O)NCCc1coc(-c2ccc(F)cc2)n1         mid bin
31  COC[C@H](C)NC(=O)CSc1ncnc2sc(-c3ccccc3)cc12         low bin
32  COc1ccc(-c2cnc3ccc(NCc4ccc(S(N)(=O)=O)cc4)nn23)cn1        high bin
33  COc1nc2ccc(Br)cc2cc1[C@@H](c1ccccc1)[C@@](O)(CCN(C)C)c1cccc2ccccc12        high bin
34  C[C@]1(COc2ccc(N3CCC(Oc4ccc(OC(F)(F)F)cc4)CC3)cc2)Cn2cc([N+](=O)[O-])nc2O1         mid bin
35    COc1ccc(-c2nn(C(C)C)c3ncnc(N)c23)cc1OC        high bin
36               CS(=O)(=O)Cc1nc2ccccc2oc1=O         low bin
37  Nc1nc2ccc(-c3cncc(Oc4ccc(F)cc4)c3)cc2[nH]1        high bin
38  Clc1cccc(CO[C@H]2CCc3ccccc3[C@@H]2n2ccnn2)c1        high bin
39  CCc1ccc(S(=O)(=O)Nc2cc(CN3CCN(CCC(C)C)CC3)ccc2C)cc1        high bin
40  CN1CCN(S(=O)(=O)c2ccc(-c3ccc4c(Nc5ncc(Cl)cn5)ccnc4c3)cc2)CC1        high bin
41  N[C@@H](CC(=O)c1ccc(Cl)cc1Cl)C(Cl)(Cl)Cl         low bin
42  CC(C)(C)C(=O)N(CCCCCCN1C[C@H](O)[C@@H](O)[C@H](O)[C@H]1CO)C1CCCCCC1         low bin
43  Nc1ccc(C(=O)Nc2ccc(-c3nc4ccccc4o3)cc2)cc1         low bin
